The values you see were collected from patent US20230265198A1.

# kon annotations
tested_target: neuropilin-1 (NRP1), analyte in SPR (UniProt O14786 22-644, limits assumed)
measurement_description: SPR, Carterra LSA, antibody coupled
Numeric answer only, unit M⁻¹ s⁻¹ assumed.

binder: NRP1-18 (VHH) VHH: EVQLVESGGGLVQPGGSLRLSCAASGFRFSSYGMGWFRQAPGKEREFVAFISGNPSRTYYADSVKGRFTISADNSKNTAYLQMNSLKPEDTAVYYCAARPYQKYNWASASYNWGQGTLVTVSS
endpoint_name: kon
value_reported: 12900
--
binder: NRP1-4 (VHH) VHH: EVQLVESGGGLVQPGGSLRLSCAASGNIFINNAMGWFRQAPGKERELVAAITSSSGRRWYADSVKGRFTISADNSKNTAYLQMNSLKPEDTAVYYCAARRIVNVEGAYRDWGQGTLVTVSS
endpoint_name: kon
value_reported: 256000

[Q] Give its kon value. Item: NRP1-115 (antibody, IgG2, V domains shown) VH: EVQLLESGGGLVQPGGSLRLSCAASGFTFGHYEMDWVRQAPGKGLEWVSSIDDRGRYTYYADSVKGRFTISRDNSKNTLYLQMNSLRAEDTAVYYCARSKIAFDYWGQGTLVTVSS VL: DIQMTQSPSSLSASVGDRVTITCRASQNIRSYLNWYQQKPGKAPKLLIYGRNKRPSGVPSRFSGSGSGTDFTLTISSLQPEDFATYYCQQSYENPLTFGQGTKVEIK
[A] 109000

[Q] Entry NRP1-8 (VHH) VHH: EVQLVESGGGLVQPGGSLRLSCAASGFPLDDYAMGWFRQAPGKEREFVAAINWSGGSAVYADSVKGRFTISADNSKNTAYLQMNSLKPEDTAVYYCMRGGSYGDYGGYWGQGTLVTVSS : reported kon = ?
[A] 31100
